- TARGET_SYSTEM: NAD-dependent protein deacylase sirtuin-5, mitochondrial (Homo sapiens, UniProt Q9NXA8)
- Sequence (Q9NXA8 whole entry): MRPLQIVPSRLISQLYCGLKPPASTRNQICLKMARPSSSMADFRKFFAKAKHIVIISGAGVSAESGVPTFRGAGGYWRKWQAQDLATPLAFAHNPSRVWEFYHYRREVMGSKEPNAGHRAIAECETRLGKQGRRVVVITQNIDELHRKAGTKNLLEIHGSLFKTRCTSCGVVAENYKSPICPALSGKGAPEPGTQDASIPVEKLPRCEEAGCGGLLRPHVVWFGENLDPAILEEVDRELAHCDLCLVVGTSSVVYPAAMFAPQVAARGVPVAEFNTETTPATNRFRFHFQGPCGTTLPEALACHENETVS
- ASSAY_COMMENT: Inhibition of SIRT5 (unknown origin)
pIC50: −log10 of the molar value.
Answer n if pIC50 is under 5, and y if it is 5 or more.

COMPOUND	ASSIGNED_LABEL
O=C(O)CCNC(=S)NCCCC[C@H](NS(=O)(=O)c1cccc(F)c1)C(=O)N[C@@H](Cc1c[nH]c2ccccc12)C(=O)NC1CC1	y
O=C(O)CCNC(=S)NCCCC[C@H](NS(=O)(=O)c1cccc(F)c1)C(=O)N[C@@H](Cc1c[nH]c2ccccc12)C(=O)NC1CCCC1	y
O=C(O)CC(=S)NCCCC[C@H](NC(=O)OCc1ccccc1)C(=O)Nc1ccccc1	y

Q: Hi, just wondering whether `N=C(N)NCCCC[C@@H]1NC(=O)CCNC(=O)CCC[C@@H](C(N)=O)NC(=O)[C@H](CCCCNC(=S)NCCC(=O)O)NC1=O` shows pIC50 of 5 or higher.
A: y

Q: Now this one: `O=C(O)CCNC(=S)NCCCC[C@H](NS(=O)(=O)c1cccc(F)c1)C(=O)N[C@@H](Cc1c[nH]c2ccccc12)C(=O)NC1CCC1`
A: y

Q: What about this compound? `N=C(N)NCCCC[C@@H]1NC(=O)CCC(=O)NCCCC[C@@H](C(N)=O)NC(=O)[C@H](CCCCNC(=S)NCCC(=O)O)NC1=O`
A: y

Q: And then `CC1(C)CC[C@]2(C(=O)O)[C@H](O)C[C@]3(C)C(=CC[C@@H]4[C@@]5(C)CC[C@H](O)C(C)(C)[C@@H]5CC[C@]43C)[C@@H]2C1` , what is it?
A: n

Q: And what about the compound `N=C(N)NCCCC[C@@H]1NC(=O)CCCCC(=O)NCCCC[C@@H](C(N)=O)NC(=O)[C@H](CCCCNC(=S)NCCC(=O)O)NC1=O` ?
A: y

Q: Please answer likewise for CC1(C)CC[C@]2(C(=O)O)CC[C@]3(C)C(=CC[C@@H]4[C@@]5(C)CC[C@H](O)C(C)(C)[C@@H]5CC[C@]43C)[C@@H]2C1 [OLEANOLIC_ACID]
A: n

----------
- TARGET_SYSTEM: NAD-dependent protein deacylase sirtuin-5, mitochondrial (Homo sapiens)
- ASSAY_COMMENT: Inhibition of human recombinant SIRT5 using Benzyl-Lys(succinyl)-AMC as substrate incubated for 2 hrs by fluorescence based assay
Overview of recorded pIC50 for various compounds
Keep in mind that pIC50 stands for -log10 of concentration in molar terms.

SMILES_STRUCTURE	pIC50
CC1=NN(c2ccc(C)c(Cl)c2)C(=O)/C1=C\c1ccc(-c2ccc(C(=O)O)cc2)o1	4.74
N#C/C(=C\c1ccc(-c2ccc(C(=O)O)cc2)o1)C(=O)Nc1ccc(Cl)c([N+](=O)[O-])c1	5.03
CNC(=O)c1cccc(NC(=O)/C(C#N)=C/c2ccc(-c3ccc(C(=O)O)cc3)o2)c1	5.10

Now take the following compound into account.
Q: Fill in the recorded pIC50 for this compound, with NAD-dependent protein deacylase sirtuin-5, mitochondrial (Homo sapiens) as test system: `N#C/C(=C\c1ccc(-c2ccc(C(=O)O)cc2)o1)C(=O)Nc1ccc(C#N)c(F)c1`
A: 5.23

----------
- TARGET_SYSTEM: NAD-dependent protein deacetylase sirtuin-1 (Homo sapiens, UniProt Q96EB6)
- Sequence (Q96EB6 whole entry, the tested form may be a part): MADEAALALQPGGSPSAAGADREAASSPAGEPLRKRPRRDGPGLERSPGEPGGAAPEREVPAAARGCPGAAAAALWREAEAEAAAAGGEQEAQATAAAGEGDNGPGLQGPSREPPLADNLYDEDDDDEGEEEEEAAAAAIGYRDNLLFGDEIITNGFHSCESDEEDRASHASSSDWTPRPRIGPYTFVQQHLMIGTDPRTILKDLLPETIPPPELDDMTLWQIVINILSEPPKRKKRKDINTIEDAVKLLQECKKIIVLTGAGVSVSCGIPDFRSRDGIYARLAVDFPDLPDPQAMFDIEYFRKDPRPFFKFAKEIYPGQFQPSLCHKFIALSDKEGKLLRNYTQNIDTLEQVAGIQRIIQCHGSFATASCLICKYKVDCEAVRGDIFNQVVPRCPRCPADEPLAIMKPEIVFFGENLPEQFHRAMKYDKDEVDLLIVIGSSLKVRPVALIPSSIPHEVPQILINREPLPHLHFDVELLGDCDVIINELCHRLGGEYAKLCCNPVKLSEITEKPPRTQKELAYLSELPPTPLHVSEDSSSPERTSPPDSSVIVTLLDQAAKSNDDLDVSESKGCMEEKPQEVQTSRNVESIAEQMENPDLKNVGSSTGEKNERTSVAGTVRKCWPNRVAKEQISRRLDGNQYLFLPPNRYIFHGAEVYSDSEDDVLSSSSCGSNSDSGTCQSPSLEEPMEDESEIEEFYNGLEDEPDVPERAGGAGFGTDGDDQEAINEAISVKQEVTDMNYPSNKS
- ASSAY_COMMENT: Inhibition of human N-terminal His6 tagged SIRT1 (183-505-(GGGS)2-641-665 residues) expressed in Escherichia coli BL21 cells
READOUT_KIND: pIC50
Worth noting: pIC50 values are minus log10 of concentrations stated in mol/L.

Q: Reported pIC50 for `CCn1c(=O)n(CC(C)C)c(=O)c2[nH]c(SSc3nc4c([nH]3)c(=O)n(CC(C)C)c(=O)n4CC)nc21` : what is it?
A: 5.75

----------
- TARGET_SYSTEM: UniProt Q8IXJ6
- Sequence (Q8IXJ6 whole entry): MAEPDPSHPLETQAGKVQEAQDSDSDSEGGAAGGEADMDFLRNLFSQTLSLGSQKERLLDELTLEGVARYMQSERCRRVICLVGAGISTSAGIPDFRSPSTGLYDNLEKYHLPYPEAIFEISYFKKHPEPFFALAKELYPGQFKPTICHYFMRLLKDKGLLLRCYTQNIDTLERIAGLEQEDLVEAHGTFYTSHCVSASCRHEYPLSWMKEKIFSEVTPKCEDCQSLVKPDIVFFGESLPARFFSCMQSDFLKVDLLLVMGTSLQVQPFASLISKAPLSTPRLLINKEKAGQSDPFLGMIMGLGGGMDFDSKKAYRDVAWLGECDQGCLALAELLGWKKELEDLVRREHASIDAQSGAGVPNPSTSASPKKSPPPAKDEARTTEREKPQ
READOUT_KIND: IC50 (µM)
Give a bare numeral; the unit µM is implied.

Q: Bench note: what IC50 did `O=C(O)CC(=S)NCCCC[C@H](NC(=O)OCc1ccccc1)C(=O)Nc1ccccc1` show?
A: 256

----------
- TARGET_SYSTEM: NAD-dependent protein deacetylase sirtuin-1 (Homo sapiens, UniProt Q96EB6)
- ASSAY_COMMENT: Inhibition of SIRT1 (unknown origin)
READOUT_KIND: IC50 (µM)
Express it in µM; write the number only.

Q: Consider the molecule shown here: `O=C(O)CC(=S)NCCCC[C@H](NC(=O)OCc1ccccc1)C(=O)Nc1ccccc1` What is its recorded IC50?
A: 256

----------
- TARGET_SYSTEM: NAD-dependent protein deacetylase sirtuin-3, mitochondrial (Homo sapiens, UniProt Q9NTG7)
- Sequence (Q9NTG7 whole entry): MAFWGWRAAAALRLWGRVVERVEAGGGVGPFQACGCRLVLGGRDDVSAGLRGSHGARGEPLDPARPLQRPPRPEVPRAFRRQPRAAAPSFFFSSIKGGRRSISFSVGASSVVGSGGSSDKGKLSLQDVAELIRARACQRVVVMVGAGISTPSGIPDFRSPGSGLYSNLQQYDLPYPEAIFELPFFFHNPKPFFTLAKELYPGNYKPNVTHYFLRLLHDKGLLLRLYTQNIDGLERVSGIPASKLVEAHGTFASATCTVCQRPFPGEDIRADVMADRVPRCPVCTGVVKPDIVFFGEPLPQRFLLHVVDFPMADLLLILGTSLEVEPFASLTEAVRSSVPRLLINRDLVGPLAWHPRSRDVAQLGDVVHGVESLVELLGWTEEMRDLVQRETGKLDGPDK
READOUT_KIND: pIC50
Please express pIC50 as -log10 of the molar concentration.

Q: # lookup: pIC50 of `CCn1c(=O)n(CC(C)C)c(=O)c2[nH]c(SSc3nc4c([nH]3)c(=O)n(CC(C)C)c(=O)n4CC)nc21`
A: 6.37
